Cited source for all entries: ChEMBL document CHEMBL4371077

# assay_text: Proteolytic stability of the compound assessed as Streptomyces griseus pronase-mediated compound hydrolysis by measuring parent compound remaining after 6 mins by HPLC method
# Type: ADME
# stated_conditions: read-out: Stability
Residues, ends and D or L forms follow the SMILES beside them.
measured_property: remaining at 0.1 h (%)

compound: CSCC[C@H](NC(=O)[C@H](CC(C)C)NC(=O)[C@H](CCCCNC(C)=O)NC(=O)[C@H](CCCCN)NC(=O)[C@@H](N)Cc1cnc[nH]1)C(=O)O (H-HKK(Ac)LM-OH)
uom: %
recorded_number: 51.1

(P) CCCCCCCCCCCCNC(=S)NCCCC[C@@H]1NC(=O)[C@H](CCCNC(=N)N)NC(=O)CNC(=O)CCC(=O)NCC(=O)NCCCC[C@@H](C(N)=O)NC1=O
(Q) CCCCCCCCCCCCNC(=O)CCCCC[C@@H]1NC(=O)[C@H](CCCNC(=N)N)NC(=O)CNC(=O)CCC(=O)NCC(=O)NCCCC[C@@H](C(N)=O)NC1=O
I'm curious, which of these has a smaller remaining at 0.1 h number: P or Q ? Pick one and reply with its label.
P
